B1: SMG5 (parent)
chain: TNPDLIIVCAQSSQSLWNRLSVLL

- Variants of: B1
- Assay: protein stability index of a GFP-peptide fusion (GPS, HEK-293T) (PSI 1-6); higher = more stable;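 further: lentivirally expressed fusions sorted by FACS into six bins by GFP to DsRed ratio, PSI derived from sequencing read proportions per bin multiplied by bin number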
- Test context: c terminus: a fixed tail appended
Metric: protein stability index

V22M :: 2.98
S12R :: 3.06
L24V :: 3.05
N2P :: 3.06
A10Y :: 3.09

Assign protein stability index to the following record: S13L
2.97

Ref: the supplement of paper PMC10567573
